Target: T1, native membrane bound porcine CD163 on primary porcine alveolar macrophages (porcine, UniProt Q2VL90 47-1115)
T1 construct: also called PAM CD163-WT; pPAM
T1 sequence: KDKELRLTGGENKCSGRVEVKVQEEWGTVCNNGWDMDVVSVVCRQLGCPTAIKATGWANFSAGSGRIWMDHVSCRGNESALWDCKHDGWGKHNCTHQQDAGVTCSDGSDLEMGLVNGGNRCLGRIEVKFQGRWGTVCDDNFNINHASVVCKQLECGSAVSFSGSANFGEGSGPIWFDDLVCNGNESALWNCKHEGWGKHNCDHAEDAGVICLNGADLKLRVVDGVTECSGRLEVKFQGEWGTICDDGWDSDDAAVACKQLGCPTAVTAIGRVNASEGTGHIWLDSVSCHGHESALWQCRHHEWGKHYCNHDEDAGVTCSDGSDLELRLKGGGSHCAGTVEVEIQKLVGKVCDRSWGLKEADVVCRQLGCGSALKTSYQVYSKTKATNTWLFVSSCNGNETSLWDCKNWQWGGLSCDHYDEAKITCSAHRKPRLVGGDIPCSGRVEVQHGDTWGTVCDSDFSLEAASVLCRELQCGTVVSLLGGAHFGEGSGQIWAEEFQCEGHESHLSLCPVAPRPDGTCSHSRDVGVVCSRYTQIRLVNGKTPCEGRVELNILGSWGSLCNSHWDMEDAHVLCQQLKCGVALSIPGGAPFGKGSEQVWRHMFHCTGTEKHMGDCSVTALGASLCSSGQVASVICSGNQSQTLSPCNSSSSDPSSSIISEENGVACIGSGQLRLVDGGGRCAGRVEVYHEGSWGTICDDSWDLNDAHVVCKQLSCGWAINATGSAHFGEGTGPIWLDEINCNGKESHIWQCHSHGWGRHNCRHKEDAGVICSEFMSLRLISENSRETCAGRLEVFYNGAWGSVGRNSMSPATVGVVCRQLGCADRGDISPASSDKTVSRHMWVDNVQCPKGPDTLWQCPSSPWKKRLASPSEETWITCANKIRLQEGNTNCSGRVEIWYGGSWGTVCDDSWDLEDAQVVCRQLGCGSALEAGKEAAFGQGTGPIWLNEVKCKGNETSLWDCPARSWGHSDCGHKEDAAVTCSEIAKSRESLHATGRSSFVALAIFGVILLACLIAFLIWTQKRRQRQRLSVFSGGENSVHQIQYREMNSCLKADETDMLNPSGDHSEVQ
Assay: flow cytometry, PAM CD163-WT, 4C
Method: Periplasmic Extract (P.E) from the selected clones were incubated with anti-c-myc antibody (Roche; Cat. nr. 11667203001), specific to the c-myc tag present in the soluble VHH, for 30 minutes with agitation at room temperature (RT). The mix (P.E + anti-c-myc antibody) was added to the pPAM or pPAMΔ5 domain (cells with deletion of SRCR domain 5) and incubated for 60 min at 4° C. with gentle shaking. […]
Each record here notes measured % Binding.
reported property: % Binding

1. VHH 011 (2B06) (VHH, Llama single domain antibody; also called 57(#11); VHCDR3 57(#11); not shown: tags: c-myc tag in periplasmic extract (ELISA, FACS); FLAG and His tags in purified VHH (SPR, infection assays)) VHH: EVQLVESGGGLVQAGGSLRLSCAASGRTLSVYGTGWFRQAPGKEREFVAGISGTTGSTLYADSVKGRFTISRDNAKNTVYLQMNSLKSEDTALYYCAAGGRVYITTSSWAYWGQGTQVTVSS : 74.1%
2. VHH 017 (3D03) (VHH, Llama single domain antibody; also called 29(#17); VHCDR3 29(#17); not shown: tags: c-myc tag in periplasmic extract (ELISA, FACS); FLAG and His tags in purified VHH (SPR, infection assays)) VHH: QLQLVESGGGLVQPGGSLRLSCAASGFTLDDYTIGWFRQAPGKEREGVSCINSITSNTYYADSVKGRFTISRDNAKNTVYLQMNSLTAEDTAIYYCAADSGLFSGSSCLKYRAMRFGSWGQGTQVTVSS : 95.3%
